- System: RAW-Dual
- assay-notes: NF-kB SEAP reporter activity, fold change vs agonist alone; cytotoxicity flag (confluency mask): not cytotoxic; higher = enhanced NF-kB activity
- assay-conditions: agonist: Pam2CSK4 (TLR2/6) 0.1 ug/mL
Whole data set: some 2,900 compounds, median “NF-kB SEAP reporter activity, fold change vs agonist alone” near 0.99, cut for the highest 2% near 2.6. The list comes from a sample in which the highest values are over-represented; it also holds close analogues and randomly drawn compounds.
Output True for NF-kB SEAP reporter activity not less than 0.9; output False otherwise.

Sample answers from the record:
| compound | target-entity | label-class |
| --- | --- | --- |
| O=C(Nc1ncc([N+](=O)[O-])s1)c1ccccc1O (library stock concentration (final ~1000-fold dilution): 10 mM) | RAW-Dual | False |
| N#Cc1ccc(COCC2OC(n3c(NCc4ccc(Cl)c(Cl)c4)nc4c(N)ncnc43)C(O)C2O)cc1 (stereo unspecified) (library stock concentration (final ~1000-fold dilution): 10 mM) | RAW-Dual | False |

State whether the measured NF-kB SEAP reporter activity reaches 0.9, counting equality as reaching it, for CC(C(=O)Nc1cccc(N=Cc2c(O)ccc3ccccc23)c1)c1ccccc1 (stereo unspecified) (library stock concentration (final ~1000-fold dilution): 10 mM) True

Let us now turn to Cc1c(C(=O)Nc2ccc(N3CC(C)OC(C)C3)nc2)cccc1-c1ccc(OC(F)(F)F)cc1 (stereo unspecified) (library stock concentration (final ~1000-fold dilution): 10 mM) False

Param item: C#CCNC1CCc2ccccc21 (stereo unspecified) (library stock concentration (final ~1000-fold dilution): 10 mM) True

Try this compound too: CC(NC(=O)CCc1nc2ccccc2c(=O)[nH]1)c1ccccc1 (stereo unspecified) (library stock concentration (final ~1000-fold dilution): 10 mM) True

Param item: COc1cc(Nc2nc3ccccc3nc2NS(=O)(=O)c2ccc(NC(=O)c3ccc(C)c(OC)c3)cc2)cc(OC)c1 (library stock concentration (final ~1000-fold dilution): 10 mM) False

Quick one: COc1ccc(S(=O)(=O)Nc2cccnc2Nc2ccc(O)cc2)cc1 (library stock concentration (final ~1000-fold dilution): 10 mM) True

Same read-out for CC(NC(=O)c1ccccc1N=Cc1c(O)ccc2ccccc12)c1ccccc1 (stereo unspecified) (library stock concentration (final ~1000-fold dilution): 10 mM) ? False

Query N#Cc1cccc(-c2c[nH]c3ncnc(N4CCOCC4)c23)c1 (library stock concentration (final ~1000-fold dilution): 10 mM) next False

Subsequent entry: CC1CNC(=O)c2cnn3ccc(nc23)NC(C)c2cc(F)ccc2O1 (stereo unspecified) (library stock concentration (final ~1000-fold dilution): 10 mM) False

---

- Tested on: RAW-Dual
- assay-notes: NF-kB SEAP reporter activity, fold change vs agonist alone; cytotoxicity flag (confluency mask): cytotoxic (confluency <70% of control); higher = enhanced NF-kB activity
- assay-conditions: agonist: ODN 1826 (TLR9) 0.5 ug/mL
The full ranking holds about 2,900 compounds; the median of “NF-kB SEAP reporter activity, fold change vs agonist alone” is about 0.99, and the highest 2% start at about 2.6. The list comes from a sample in which the highest values are over-represented; it also holds close analogues and randomly drawn compounds.
quantity-measured: NF-kB SEAP reporter activity

| compound | quantity-measured | reported-measurement |
| --- | --- | --- |
| NC(=O)N1CCC(CC(=O)N2CCC(C3c4ncc(Br)cc4CCc4cc(Cl)cc(Br)c43)CC2)CC1 (stereo unspecified) (library stock concentration (final ~1000-fold dilution): 10 mM) | NF-kB SEAP reporter activity | 0.347 |
| COc1ccc(-c2oc3c(CC=C(C)C)c(O)cc(O)c3c(=O)c2OC2OC(C)C(O)C(O)C2O)cc1 (stereo unspecified) (library stock concentration (final ~1000-fold dilution): 10 mM) | NF-kB SEAP reporter activity | 0.553 |
| CCS(=O)(=O)Nc1ccc(Oc2ccc(F)cc2F)c(-c2cn(C)c(=O)c3[nH]ccc23)c1 (library stock concentration (final ~1000-fold dilution): 10 mM) | NF-kB SEAP reporter activity | 2.18 |

Given the entry CN1CCN(Cc2ccc(Nc3ncc(Cl)c(Nc4ccccc4S(=O)(=O)N(C)C)n3)cc2)CC1 (library stock concentration (final ~1000-fold dilution): 2 mM) , report its measured NF-kB SEAP reporter activity. 1.3

Now try Nc1nc(Nc2ccc(S(N)(=O)=O)cc2)nn1C(=O)c1c(F)cccc1F (library stock concentration (final ~1000-fold dilution): 10 mM) . 1.29

And for CCc1ccc(OCc2ccccc2C(=O)Nc2ccc3nc(C)cc(N)c3c2)cc1.Cl (library stock concentration (final ~1000-fold dilution): 10 mM) ? 0.198

---

Catalogue of NF-kB SEAP reporter activity readings, one per entry.
- Tested on: RAW-Dual
- assay-notes: NF-kB SEAP reporter activity, fold change vs agonist alone; cytotoxicity flag (confluency mask): not cytotoxic; higher = enhanced NF-kB activity
- assay-conditions: agonist: LPS (TLR4) 0.1 ug/mL
The full ranking holds about 2,900 compounds; the median of “NF-kB SEAP reporter activity, fold change vs agonist alone” is about 0.99, and the highest 2% start at about 2.6. The full list was thinned out, with the highest values kept by preference.
Respond using a number only.

| compound | target-entity | NF-kB SEAP reporter activity |
| --- | --- | --- |
| COCCNCc1ccc(-c2cc3nccc(Oc4ccc(NC(=O)C5(C(=O)Nc6ccc(F)cc6)CC5)cc4F)c3s2)nc1 (library stock concentration (final ~1000-fold dilution): 10 mM) | RAW-Dual | 0.36 |
| Cl.Cl.N/C(=N\OCC(O)CN1CCCCC1)c1cccnc1 (stereo not given) (library stock concentration (final ~1000-fold dilution): 10 mM) | RAW-Dual | 1.1 |
| CC(NCc1ccc(OCc2cccc(F)c2)cc1)C(N)=O.CS(=O)(=O)O (stereo not given) (library stock concentration (final ~1000-fold dilution): 10 mM) | RAW-Dual | 1.08 |
| Nc1nc(NCCNc2ncc(-n3ccnc3)c(-c3ccc(Cl)cc3Cl)n2)ccc1[N+](=O)[O-] (library stock concentration (final ~1000-fold dilution): 10 mM) | RAW-Dual | 2.5 |

# context switch: different compound, same NF-kB SEAP reporter activity
What value of NF-kB SEAP reporter activity has been recorded for this entry: CC1COCCN1c1cc(-c2ccnn2C)c2ccnc(-c3ccn[nH]3)c2n1.Cl (stereo not given) (library stock concentration (final ~1000-fold dilution): 10 mM) 1.89

---

- Tested on: RAW-Dual
- assay-notes: NF-kB SEAP reporter activity, fold change vs agonist alone; cytotoxicity flag (confluency mask): cytotoxic (confluency <70% of control); higher = enhanced NF-kB activity
- assay-conditions: agonist: LPS (TLR4) 0.1 ug/mL
In all, about 2,900 compounds were measured (“NF-kB SEAP reporter activity, fold change vs agonist alone”: median about 0.99, highest 2% from about 2.6 on). What follows is part of a selection rich in the highest values, with near analogues and random picks from the rest.
Classes (NF-kB SEAP reporter activity): lower band = under 0.6, central band = from 0.6 up to 1, upper band = 1 and over

As a guide, the following entries are already answered.
| compound | label-class |
| --- | --- |
| O=c1cc(N2CCOCC2)oc2c(-c3ccccc3)cccc12 (library stock concentration (final ~1000-fold dilution): 10 mM) | upper band |
| Cl.OCCNCc1ccc(OCc2ccc(F)cc2)c(OCc2ccc(F)cc2)c1 (library stock concentration (final ~1000-fold dilution): 10 mM) | central band |
| O=C(/C=C/c1cncc(F)c1)c1c(-c2ccccc2)c2cc(Cl)ccc2[nH]c1=O (library stock concentration (final ~1000-fold dilution): 10 mM) | lower band |
| COc1ccc2cc1Oc1ccc(cc1)CC1c3c(cc4c(c3Oc3cc5c(cc3OC)CCN(C)C5C2)OCO4)CCN1C (stereo not drawn) (library stock concentration (final ~1000-fold dilution): 10 mM) | upper band |
| Nc1ncnc2c1c(I)cn2C1OC(CO)C(O)C1O (stereo not drawn) (library stock concentration (final ~1000-fold dilution): 10 mM) | lower band |
| CNCCCC1c2ccccc2C=Cc2ccccc21.Cl (library stock concentration (final ~1000-fold dilution): 10 mM) | central band |
| CCS(=O)(=O)N1CCN(c2ccc(Nc3ncc(C(N)=O)c(NC4CC4)n3)cc2)CC1.Cl (library stock concentration (final ~1000-fold dilution): 10 mM) | lower band |
| COc1ccc(C=Cc2cc(OC)c(OC)c(OC)c2)cc1OP(=O)(O)O (library stock concentration (final ~1000-fold dilution): 10 mM water) | upper band |
| COc1cc(F)ccc1-c1ncnc(Nc2cccc(CS(C)(=N)=O)c2)n1 (stereo not drawn) (library stock concentration (final ~1000-fold dilution): 10 mM) | central band |
| COc1cc(OC)cc(N(CCNC(C)C)c2ccc3ncc(-c4cnn(C)c4)nc3c2)c1 (library stock concentration (final ~1000-fold dilution): 10 mM) | upper band |

Hello team, could you let me know which band the following compound falls into: COc1cc(OCc2cccc(-c3ccccc3)c2C)cc(OC)c1CN1CCCCC1C(=O)O (stereo not drawn) (library stock concentration (final ~1000-fold dilution): 10 mM) upper band

Please answer likewise for CC(Oc1ccc2[nH]nc(/C=C/c3cnn(CCO)c3)c2c1)c1c(Cl)cncc1Cl (stereo not drawn) (library stock concentration (final ~1000-fold dilution): 10 mM) lower band
